Recorded values, source patent US20260102487A1.

# MEASURED_TARGET: T1, cynomolgus IL-2Rβγ receptor on cynomolgus T-cells (PBMCs) (cynomolgus)
# T1 construct: whole, on cells; Endogenous receptor on primary cynomolgus cells
# ASSAY_TEXT: flow cytometry cell binding on cynomolgus CD8+ T-cells (PBMC), gMFI as fold over secondary antibody only
Readings of EC50 (read off the curve) for the listed binders

Field: example entries. Status: answers known.
INSERT INTO measurements (binder, measured_value) VALUES
  ('BsAb-5 (IL2RB_F09K**IL2RG_F16B) (bispecific antibody, human IgG4, V domains shown, Heavy chain-only bispecific on silenced, stabilised human IgG4 Fc, knobs-into-holes, no light chains; not shown: C-terminal His-tag on the knob chain) V domain 1: QVQLQESSPGLVKPSETLSLTCTVSGGSISSSNWWSWVRQPPGKGLEWIGEISHSGSTNYNPSLKSRVTISVDKSKNQFSLRLSSVTAADTAVYFCGRGSWELTDAFDIRGQGTLVTVSS V domain 2: QVQLVESGGGLVKPGGSLRLSCAASGFTFSDYYMSWIRQAPGKGLEWVSYISSSGSTIYYADSVKGRFTISRDNAKNSLYLQMNSLRAEDTAVYYCARGDAVSITGDYRGQGTLVTVSS', '~4 nM'),
  ('BsAb-1 (IL2RB_F09C**IL2RG_F16A) (bispecific antibody, human IgG4, V domains shown, Heavy chain-only bispecific on silenced, stabilised human IgG4 Fc, knobs-into-holes, no light chains; not shown: C-terminal His-tag on the knob chain) V domain 1: QVQLQESGPGLVKPSGTLSLTCAVSGGSISSSDWWSWVRQPPGKGLEWIGEIDHSGSTNYNPSLMSRVTISVDKSKNQFSLKLSSVTAADTAVYFCGRGSWELSDAFDIRGQGTLVTVSS V domain 2: QVQLVESGGGLVKPGGSLRLSCAASGFTFSDYYMSWIRQAPGKGLEWVSSISSSGDTIYYADSVQGRFTLSRDNAENSLFLQMNSLRAEDTAVYYCARGDAVSITGDYRGQGTLVTVSS', '~20 nM'),
  ('BsAb-4 (IL2RB_F09G**IL2RG_F18A) (bispecific antibody, human IgG4, V domains shown, Heavy chain-only bispecific on silenced, stabilised human IgG4 Fc, knobs-into-holes, no light chains; not shown: C-terminal His-tag on the knob chain) V domain 1: QVQLQESGPGLVKSSETLSLTCTVSGGSISSSDWWSWVRQPPGKGLEWIGEIDHSGSTNYNPSLMSRVTISVDKSKNQFSLKLSSVTAADTAVYFCARGSWELTDAFDIRGQGTLVTVSS V domain 2: QVQLVESGGDLVKPGGSLRLSCAASGFTFSDYYMSWLRQAPGKELEWVSHISSSGTTTYYADSVEGRFTITRDNAKNSLYLQMNSLRAEDTAVYYCARGAAVAPGFDSRGQGTLVTVSS', '~10 nM');

Request: Using the record for BsAb-3 (IL2RB_F09G**IL2RG_F16C) (bispecific antibody, human IgG4, V domains shown, Heavy chain-only bispecific on silenced, stabilised human IgG4 Fc, knobs-into-holes, no light chains; not shown: C-terminal His-tag on the knob chain) V domain 1: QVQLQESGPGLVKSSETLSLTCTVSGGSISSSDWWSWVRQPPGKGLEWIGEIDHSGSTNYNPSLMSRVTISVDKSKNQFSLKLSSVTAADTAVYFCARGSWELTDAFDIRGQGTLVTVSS V domain 2: QVQLVESGGGLVKPGGSLRLSCAASGFTFNDYYMSWIRQAPGKGLEWVSHISSSGSTIYYADSVKGRFTVSRDNANNSLYLQMHSLRAEDTAVYYCARGDAVSITGDYRGQGTLVTVSS , state its measured EC50 (read off the curve).
Result: ~10 nM

Request: Using the record for BsAb-6 (IL2RB_F18E**IL2RG_F16A) (bispecific antibody, human IgG4, V domains shown, Heavy chain-only bispecific on silenced, stabilised human IgG4 Fc, knobs-into-holes, no light chains; not shown: C-terminal His-tag on the knob chain) V domain 1: QVQLVESGGGVVQPGRSLRLSCAASGFTFSSYGMHWVRQAPGKEREWVAVISYDGSNKYYTDSVKGRFTISRDNSKNTLYLEMNSLRAEDTAVYYCARDLDYDVLTGDPVGGFDIWGQGTLVTVSS V domain 2: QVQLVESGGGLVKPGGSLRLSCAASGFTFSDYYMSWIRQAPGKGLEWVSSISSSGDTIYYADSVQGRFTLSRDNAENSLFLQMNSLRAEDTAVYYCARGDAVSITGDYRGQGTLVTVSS , state its measured EC50 (read off the curve).
Result: ~20 nM

Request: Using the record for BsAb-2 (IL2RB_F09G**IL2RG_F16B) (bispecific antibody, human IgG4, V domains shown, Heavy chain-only bispecific on silenced, stabilised human IgG4 Fc, knobs-into-holes, no light chains; not shown: C-terminal His-tag on the knob chain) V domain 1: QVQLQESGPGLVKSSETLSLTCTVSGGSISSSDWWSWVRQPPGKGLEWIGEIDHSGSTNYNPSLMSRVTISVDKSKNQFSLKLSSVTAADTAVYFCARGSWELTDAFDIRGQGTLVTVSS V domain 2: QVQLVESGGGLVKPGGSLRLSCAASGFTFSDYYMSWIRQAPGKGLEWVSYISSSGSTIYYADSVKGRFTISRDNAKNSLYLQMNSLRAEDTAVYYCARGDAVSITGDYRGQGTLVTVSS , state its measured EC50 (read off the curve).
Result: ~2 nM
